Tested on: S. cerevisiae tim10 strain, luminescence counterscreen
assay-overview: TIM10 strain luminescence inhibitors – S. cerevisiae, uHTS hits, counter-screen for tim23-1 inhibitor project, dose response (AID 504672);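 also: yeast grew roughly 22 hours at 25 °C before the luminescence read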
Active and inactive are the calls of the source. Rule as the data show it: active = IC50 below about 71 µM; inactive = the rest.
Reply using exactly one outcome from active, inactive

q: Hi, do you know how O=C(N/N=C/C(Br)=C/c1ccccc1)c1ccccc1F came out in this test?
a: active

q: Hi, do you know how C[C@@]12C(=O)Nc3ccc(Cl)cc3C(=O)N1[C@H]1c3ccccc3OC[C@@H]1[C@@H]2c1ccccc1 came out in this test?
a: active

q: Hi, do you know how CC1CCN(c2ccc(-c3cccs3)nn2)CC1 came out in this test?
a: active

q: Hi, do you know how O=C(NC(=O)c1ccccc1F)OCc1ccc(Cl)cc1Cl came out in this test?
a: active

q: Hi, do you know how Cc1nc2ccccc2c(=O)n1/N=C/c1cc(Br)ccc1O came out in this test?
a: active

q: Hi, do you know how COc1ccccc1C(=O)Nc1nnc(-c2ccc3c(c2)CCCC3)o1 came out in this test?
a: active

q: Hi, do you know how Cc1ccn2cc(C(=O)Nc3ccc4c(c3)OCCO4)nc2c1 came out in this test?
a: inactive

q: Hi, do you know how CCOc1nc2ccccc2cc1C=O came out in this test?
a: active

q: Hi, do you know how O=C1c2ccccc2-c2n[nH]c3cccc1c23 came out in this test?
a: active

q: Hi, do you know how Cc1ccc2oc(C(Cl)(Cl)Cl)cc(=O)c2c1 came out in this test?
a: active

q: Hi, do you know how CCCC(=O)NC(c1ccc(C(C)C)cc1)c1ccc2cccnc2c1O (centres undefined) came out in this test?
a: active

q: Hi, do you know how CN1C(=O)C(=Cc2ccccc2OS(=O)(=O)c2ccccc2)C(=O)N(C)C1=O came out in this test?
a: active

q: Hi, do you know how Cc1ccccc1OCCCSc1nc2ccccc2[nH]1 came out in this test?
a: active

q: Hi, do you know how O=C(NC(=S)NC(=O)c1ccccc1F)c1ccccc1F came out in this test?
a: active

q: Hi, do you know how O=C(/C=C/c1ccccc1Cl)Nc1ccccc1 came out in this test?
a: active

q: Hi, do you know how Cc1ccc(-c2nc3ccccc3[nH]2)s1 came out in this test?
a: active

q: Hi, do you know how CCN(CC)S(=O)(=O)c1ccc(C(=O)OCn2nnc3ccccc3c2=O)cc1 came out in this test?
a: inactive

q: Hi, do you know how Cc1nc2ccccc2n1/N=C/c1ccc([N+](=O)[O-])s1 came out in this test?
a: active

q: Hi, do you know how CCCCCCn1c(=O)c(-c2ccccc2)c(O)c2ccccc21 came out in this test?
a: active

q: Hi, do you know how COC(=O)c1ccc(C(=O)OC)c(NC(=O)CSc2cccc[n+]2[O-])c1 came out in this test?
a: active

q: Hi, do you know how O=[N+]([O-])c1cc(O)c2ncccc2c1 came out in this test?
a: active

q: Hi, do you know how O=[N+]([O-])c1ccccc1S(=O)(=O)Nc1cccc2cccnc12 came out in this test?
a: active

q: Hi, do you know how COC(=O)c1ccc2nc(NC(=O)C3CC3)sc2c1 came out in this test?
a: active

q: Hi, do you know how Oc1ccc(Oc2ccc(Oc3ccc(O)cc3)cc2)cc1 came out in this test?
a: active

* * *

System: S. cerevisiae tim10 strain, luminescence counterscreen
assay-overview: TIM10 strain luminescence inhibitors – S. cerevisiae, uHTS hits, counter-screen for tim23-1 inhibitor project, dose response (AID 504672);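 also: yeast grew roughly 22 hours at 25 °C before the luminescence read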
Calls of active or inactive are those of the source. Rule as the data show it: active = IC50 below about 71 µM; inactive = the rest.
Reply using exactly one outcome from active, inactive

q: Hi, do you know how O=C(Nc1ccc2oc(-c3ccccc3)nc2c1)c1cccs1 came out in this test?
a: active

q: Hi, do you know how C=CCNC(=O)c1ccc2c3n(nc2c1)-c1ccc(Cl)cc1CO3 came out in this test?
a: active

q: Hi, do you know how O=C(Nc1cc(-c2ccccc2)[nH]n1)c1ccccc1 came out in this test?
a: active

q: Hi, do you know how O=c1c2ccccc2[nH]c(=S)n1CCN1CCC(=C(c2ccc(F)cc2)c2ccc(F)cc2)CC1 came out in this test?
a: active

q: Hi, do you know how COc1cc(/C=C/[N+](=O)[O-])ccc1OC(=O)c1cc2ccccc2oc1=O came out in this test?
a: active

q: Hi, do you know how CC(C)n1cc(NC(=O)c2cc(-c3ccccc3)on2)cn1 came out in this test?
a: active

q: Hi, do you know how N=c1c2c(-c3ccccc3)c(-c3ccccc3)n(Cc3ccco3)c2ncn1Cc1ccccc1 came out in this test?
a: active

q: Hi, do you know how Cc1cccc(OCCN2C(=O)C(=O)c3cc(C)ccc32)c1 came out in this test?
a: active

q: Hi, do you know how COc1ccc(C(=O)Nc2nc3ccccc3s2)c(OC)c1 came out in this test?
a: active

q: Hi, do you know how O=C(COc1ccccc1)N/N=C/c1ccc([N+](=O)[O-])o1 came out in this test?
a: active

q: Hi, do you know how Cc1nc2scc(C)n2c(=O)c1S(=O)(=O)Nc1ccc(OC(F)(F)F)cc1 came out in this test?
a: active

q: Hi, do you know how c1ccc2[nH]c(CSc3nc4ccccc4o3)nc2c1 came out in this test?
a: active

q: Hi, do you know how COC(=O)N/N=C/c1ccc(-c2cc(Cl)cc(Cl)c2)o1 came out in this test?
a: active

q: Hi, do you know how CCCN(C(=O)c1ccc([N+](=O)[O-])c(C)c1)c1c(N)n(Cc2ccccc2)c(=O)[nH]c1=O came out in this test?
a: inactive

q: Hi, do you know how Fc1ccccc1-c1cc2cc3c(cc2cn1)OCO3 came out in this test?
a: active

q: Hi, do you know how O=C1/C(=C/c2ccncc2)SC(=S)N1C1CCCCC1 came out in this test?
a: active

q: Hi, do you know how N=C1/C(=C\c2coc3ccccc3c2=O)C(=O)N=C2SC=CN12 came out in this test?
a: active

q: Hi, do you know how Cc1ccc2nc(N3C(=O)CNC3=S)sc2c1 came out in this test?
a: active

q: Hi, do you know how N#Cc1c(-c2ccccc2)cc(-c2ccc(O)cc2)nc1N came out in this test?
a: active

q: Hi, do you know how O=C(c1cc(-c2ccc(O)cc2)on1)N1CCc2ccccc2C1 came out in this test?
a: active

q: Hi, do you know how COc1ccc(-c2cc(-c3ccccc3O)[nH]n2)cc1 came out in this test?
a: active

q: Hi, do you know how O=C1NN=C(c2ccc(Br)cc2)CC1c1ccc(Cl)cc1 (stereo not drawn) came out in this test?
a: active

q: Hi, do you know how Clc1nssc1=Nc1nncs1 came out in this test?
a: active

* * *

Test system: S. cerevisiae tim10 strain, luminescence counterscreen
assay-overview: TIM10 strain luminescence inhibitors – S. cerevisiae, uHTS hits, counter-screen for tim23-1 inhibitor project, dose response (AID 504672);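 also: yeast grew roughly 22 hours at 25 °C before the luminescence read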
pIC50: −log10 of the molar value.
Could you label it Satisfied if measured pIC50 is 5 or higher, and Not satisfied otherwise?

q: Hi, just wondering whether c1ccc(N=Nc2cn[nH]c2-c2ccco2)cc1 shows pIC50 of 5 or higher.
a: Not satisfied

q: Hi, just wondering whether O=C(Nc1ccc(-c2ccc(N3CCCCC3)nn2)cc1)c1ccco1 shows pIC50 of 5 or higher.
a: Satisfied

q: Hi, just wondering whether N#C/C(=C\c1ccc(OCc2ccccc2)cc1)C(N)=O shows pIC50 of 5 or higher.
a: Not satisfied

q: Hi, just wondering whether C/C(=N\Nc1nc2ccccc2s1)c1cccs1 shows pIC50 of 5 or higher.
a: Not satisfied

q: Hi, just wondering whether c1ccc(-c2nc(NCc3cccs3)c3ccccc3n2)cc1 shows pIC50 of 5 or higher.
a: Not satisfied

q: Hi, just wondering whether O=C(Nc1nc2ccccc2s1)C1CCCN1S(=O)(=O)c1ccc(Cl)cc1 (stereo not given) shows pIC50 of 5 or higher.
a: Not satisfied

q: Hi, just wondering whether COc1cccc(C(=O)Nc2ccccc2)c1 shows pIC50 of 5 or higher.
a: Not satisfied

q: Hi, just wondering whether Cc1ccc(-c2nc(CNC(=O)c3cc(C)on3)cs2)cc1 shows pIC50 of 5 or higher.
a: Not satisfied

q: Hi, just wondering whether COc1ccc(C(=O)c2sc(Nc3ccccc3F)nc2N)cc1 shows pIC50 of 5 or higher.
a: Not satisfied

q: Hi, just wondering whether C/C(=N\Nc1ccc([N+](=O)[O-])cc1)c1ccc(O)cc1 shows pIC50 of 5 or higher.
a: Satisfied

q: Hi, just wondering whether Cc1ccc2nc(NC(=O)COC(=O)c3cccnc3)sc2c1 shows pIC50 of 5 or higher.
a: Satisfied

q: Hi, just wondering whether Cc1nn(CC(=O)Nc2nc3ccccc3s2)c(C)c1[N+](=O)[O-] shows pIC50 of 5 or higher.
a: Not satisfied

q: Hi, just wondering whether C(=C\c1ccccc1)/C=N/Nc1nc2ccccc2[nH]1 shows pIC50 of 5 or higher.
a: Not satisfied

q: Hi, just wondering whether Cc1ccn(-c2ccc(NC(=O)c3cccs3)cc2)n1 shows pIC50 of 5 or higher.
a: Satisfied

q: Hi, just wondering whether CCc1ccc2oc(-c3cc(N)ccc3Cl)nc2c1 shows pIC50 of 5 or higher.
a: Not satisfied

q: Hi, just wondering whether Cc1ccc(NC(=O)c2ccc3c(c2)OCCO3)cc1C shows pIC50 of 5 or higher.
a: Satisfied

q: Hi, just wondering whether COC(=O)c1ccc(NC(=O)c2nc(S(=O)(=O)Cc3cccc(C)c3)ncc2Cl)cc1 shows pIC50 of 5 or higher.
a: Satisfied
